Target: T1, rat SLC34A2 (rat, UniProt Q9JJ09 1-695)
T1 construct: whole, on cells
T1 sequence (looked up): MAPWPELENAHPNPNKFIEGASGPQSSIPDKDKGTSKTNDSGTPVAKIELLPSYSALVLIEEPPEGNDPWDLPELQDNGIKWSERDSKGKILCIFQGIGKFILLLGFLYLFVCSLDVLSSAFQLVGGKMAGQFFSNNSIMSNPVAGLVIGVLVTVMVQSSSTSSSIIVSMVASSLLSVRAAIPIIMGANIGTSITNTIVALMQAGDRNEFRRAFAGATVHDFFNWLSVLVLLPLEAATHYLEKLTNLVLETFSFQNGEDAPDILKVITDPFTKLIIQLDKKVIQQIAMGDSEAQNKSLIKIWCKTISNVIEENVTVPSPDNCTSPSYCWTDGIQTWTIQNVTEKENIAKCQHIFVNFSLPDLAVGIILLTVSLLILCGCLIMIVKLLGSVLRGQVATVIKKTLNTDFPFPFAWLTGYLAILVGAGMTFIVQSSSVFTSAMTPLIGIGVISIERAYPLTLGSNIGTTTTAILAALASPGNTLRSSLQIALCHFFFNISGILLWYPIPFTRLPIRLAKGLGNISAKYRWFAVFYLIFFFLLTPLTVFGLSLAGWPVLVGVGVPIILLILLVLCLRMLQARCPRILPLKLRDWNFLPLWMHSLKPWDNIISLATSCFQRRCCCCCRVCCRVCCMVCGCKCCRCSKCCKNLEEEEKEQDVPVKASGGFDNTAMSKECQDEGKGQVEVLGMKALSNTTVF
Experiment: FACS, HEK293/Rat SLC34A2 cells
measurement.label: EC50 (nM)
Answer with a number only, understood to be in nM.

# binder, EC50, nM
data = [
    ("30H9B8F9.p1.z5 hIgG1 (antibody, V domains shown, humanized hIgG1) VH: QVQLVQSGAEVKKPGASVKVSCKTSGYTFTTNNMHWVRQAPGQGLEWIGAIYPGSGATAYNQKFKGRVTMTADTSTSTVYMELSSLRSEDTAVYYCARGMYGHGAMDYWGQGTLVTVSS VL: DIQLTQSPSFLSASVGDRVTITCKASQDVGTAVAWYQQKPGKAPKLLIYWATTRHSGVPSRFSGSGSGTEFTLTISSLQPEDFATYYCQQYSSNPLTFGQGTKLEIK", 1.81),
]

Exercise: Find the measured EC50 of 63A11D5B4.p1.z9 hIgG1 (antibody, V domains shown, humanized hIgG1) VH: QVQLVQSGAEVVKPGASVKMSCKTSGYTFITYNMHWVRQAPGQGLEWIGAIYPGSGDTSYNQKFKGRVTLTADKSTSTAYMELSSLRSEDTAVYYCSISTIITTGAVDYWGQGTLVTVSS VL: DIQMTQSPSSLSASVGDRVTITCKASQDVGTAVAWYQQKPGKVPKLLIYWTSTRHTGVPSRFSGSGSGTDFTLTISSLQPEDVATYYCQQYSRIPLTFGGGTKVEIK and report it.
Solution: 3.04

Exercise: Determine from records and report EC50 for 62G10E4G8.p3.z15 hIgG1 (antibody, V domains shown, humanized hIgG1) VH: QVQLVQSGAEVVKPGASVKMSCKASGYTFPSYITHWVKQAPGQGLEWIGAIYPGNADTSYIQKFKGRATLTADKSTSTAYMELSSLRSEDTAVYYCARGTYGTSAWFTYWGQGTLVTVSS VL: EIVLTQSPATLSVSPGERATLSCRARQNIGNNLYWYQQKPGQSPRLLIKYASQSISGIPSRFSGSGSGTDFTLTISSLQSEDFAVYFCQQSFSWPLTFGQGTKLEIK
Solution: 4.04
